Experiment: Cmax in human MIAPaCa2 cells expressing K-Ras G12C mutant xenografted nude mouse at 50 mg/kg, po bid
Type: ADME, organism-based, MIA PaCa-2
Set-up: dose 50 mg/kg, route oral
Conditions: in vivo
Measure Name: Cmax (µg/mL)
Field: numeric (µg/mL). Do not append units.

Entry under test: C[C@@H](c1ccccc1)[C@@H](C(=O)Nc1ccc(I)cc1F)N1C(=O)N[C@H](c2ccc(OC[C@H](O)CO)cc2)C1=O . Its Cmax was 5.24

---

Biological target: Dual specificity mitogen-activated protein kinase kinase 1 (Homo sapiens)
Sequence (Q02750 whole entry): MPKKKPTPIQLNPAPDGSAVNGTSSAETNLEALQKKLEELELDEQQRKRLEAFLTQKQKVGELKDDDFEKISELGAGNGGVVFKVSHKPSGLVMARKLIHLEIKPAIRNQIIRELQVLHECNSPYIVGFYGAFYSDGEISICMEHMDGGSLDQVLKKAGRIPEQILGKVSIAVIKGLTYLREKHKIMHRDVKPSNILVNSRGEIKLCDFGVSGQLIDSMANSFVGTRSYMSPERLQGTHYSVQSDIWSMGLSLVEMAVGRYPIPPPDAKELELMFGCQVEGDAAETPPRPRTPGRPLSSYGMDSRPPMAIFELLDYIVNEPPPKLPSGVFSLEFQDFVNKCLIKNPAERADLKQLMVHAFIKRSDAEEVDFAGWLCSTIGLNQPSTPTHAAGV
Assay: Inhibition of MEK1 in human H460 cells assessed as inhibition of ERK phosphorylation by Western blot analysis
Type: cell-based
Measure Name: pIC50
Scale: negative log10 of molar concentration, which is what pIC50 denotes.

Note to self: pIC50 recorded for C[C@@H](c1ccccc1)[C@@H](C(=O)Nc1ccc(I)cc1F)N1C(=O)N[C@H](c2ccc(OC[C@H](O)CO)cc2)C1=O was 7.09

---

Experiment: AUC (0 to 12 hrs) in human MIAPaCa2 cells expressing K-Ras G12C mutant xenografted nude mouse at 25 mg/kg, po bid
Assay type: ADME, organism-based, MIA PaCa-2
Set-up: time < 12 hr, dose 25 mg/kg, route oral
Conditions: in vivo
Measure Name: AUC at 12 h (ng·h/mL)
Provide the reading as a plain figure in ng·h/mL.

For reference, reported AUC at 12 h for C[C@@H](c1ccccc1)[C@@H](C(=O)Nc1ccc(I)cc1F)N1C(=O)N[C@H](c2ccc(OC[C@H](O)CO)cc2)C1=O stands at 12700

---

Assay: Cmax in human LOX cells expressing B-Raf V600E mutant xenografted nude mouse at 6.25 mg/kg, po bid
Format: ADME, organism-based
Parameters: dose 6.25 mg/kg, route oral
Conditions: in vivo
Measure Name: Cmax (ng/mL)
Field: numeric (ng/mL). Do not append units.

Notebook: C[C@@H](c1ccccc1)[C@@H](C(=O)Nc1ccc(I)cc1F)N1C(=O)N[C@H](c2ccc(OC[C@H](O)CO)cc2)C1=O , Cmax read as 750

---

Assay: AUC (0 to 12 hrs) in human HT-29 cells expressing B-Raf V600E mutant xenografted nude mouse at 100 mg/kg, po bid
Assay type: ADME, organism-based
Parameters: time < 12 hr, dose 100 mg/kg, route oral
Conditions: in vivo
Measure Name: AUC at 12 h (ng·h/mL)
API: value field is a number in ng·h/mL; no unit string.

What the record says about C[C@@H](c1ccccc1)[C@@H](C(=O)Nc1ccc(I)cc1F)N1C(=O)N[C@H](c2ccc(OC[C@H](O)CO)cc2)C1=O : AUC at 12 h is 18400

---

Assay: Cmax in human H460 cells expressing K-Ras Q61H mutant xenografted nude mouse at 200 mg/kg, po qd
Assay type: ADME, organism-based
Set-up: dose 200 mg/kg, route oral
Details: in vivo
Measure Name: Cmax
Just the number plus its unit, please.

Form field Cmax, entry C[C@@H](c1ccccc1)[C@@H](C(=O)Nc1ccc(I)cc1F)N1C(=O)N[C@H](c2ccc(OC[C@H](O)CO)cc2)C1=O : 20700 ng/mL

---

Experiment: Drug level in human HT-29 cells expressing B-Raf V600E mutant xenografted nude mouse tumor at 50 mg/kg, po after 4 hrs
Format: ADME, organism-based, Neoplasm
Set-up: dose 50 mg/kg, route oral
Settings: read-out: Drug uptake
Measure Name: concentration at 4 h (ng/g)
Output spec: scalar in ng/g, unitless text.

Looking up C[C@@H](c1ccccc1)[C@@H](C(=O)Nc1ccc(I)cc1F)N1C(=O)N[C@H](c2ccc(OC[C@H](O)CO)cc2)C1=O , I found its concentration at 4 h recorded as 1490
